Exercise: state measured concentration at 2 h for each of the molecules provided.
# EXPERIMENT: Absorption test, oral, rats, solution in buffer pH 7 (Example 16)
# Format: in vivo, Male Wistar rats
# RUN PARAMETERS: blood, 2 hrs., 50 mg/kg oral, rat, average of 6, read-out: Blood Concentration of the Compound
Numbers only, in ng/mL.

# example entries with known answers
[
  {
    "MOL": "N[C@@H](Cc1c[nH]c(SCC(=O)N[C@@H]2C(=O)N3C(C(=O)O)=C(CSc4cnn[nH]4)CS[C@H]23)n1)C(=O)O",
    "concentration at 2 h [ng/mL]": 14300
  },
  {
    "MOL": "N[C@@H](Cc1c[nH]c(SCC(=O)N[C@@H]2C(=O)N3C(C(=O)O)=C(CSc4nc[nH]n4)CS[C@H]23)n1)C(=O)O",
    "concentration at 2 h [ng/mL]": 400
  },
  {
    "MOL": "COC1=C(C(=O)O)N2C(=O)[C@@H](NC(=O)CSc3nc(C[C@H](N)C(=O)O)c[nH]3)[C@H]2SC1",
    "concentration at 2 h [ng/mL]": 3400
  }
]

Continue with the molecule presented below.
Q: Find the recorded concentration at 2 h belonging to CC1=C(C(=O)O)N2C(=O)[C@@H](NC(=O)CSc3nc(C[C@H](N)C(=O)O)c[nH]3)[C@H]2SC1 and report it.
Result: 7200
